The reported measurements were obtained from patent US20250011363A1.

# assayed_system: acetylcholine receptor
# method_description: SPR, receptor immobilized, peptide 10 uM
quantity_measured: Binding affinity (RU)
Express it in RU; write the number only.

Prompt: Which Binding affinity is listed for KGVYKK [6mer-2-155] ?
Response: 139

Prompt: And the next one, KVIRKK [6mer-2-172] ?
Response: 128

Prompt: And the next one, KVYLRK [6mer-2-175] ?
Response: 137

Prompt: And the next one, KLFYKK [6mer-2-182] ?
Response: 139

Prompt: And the next one, KRVTKR [6mer-2-154] ?
Response: 148

Prompt: And the next one, KWYYRK [6mer-2-198] ?
Response: 139

Prompt: And the next one, KLFLRR [6mer-2-201] ?
Response: 148

Prompt: And the next one, KWFYRR [6mer-2-163] ?
Response: 149

Prompt: And the next one, RQYQKK [6mer-2-170] ?
Response: 128

Prompt: And the next one, RGVQRK [6mer-2-200] ?
Response: 121

Prompt: And the next one, RQQCKK [6mer-2-173] ?
Response: 127

Prompt: And the next one, RWRYKR [6mer-2-136] ?
Response: 194

Prompt: And the next one, KQICRK [6mer-2-186] ?
Response: 127
